Hey, just so you know, these numbers are from the supplement of paper PMC10126150.

Parameter switch fluorescence ratio: see the listing below.
Test system: ATP;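 further: ATP exposure 15 min at 22 °C before imaging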
Assay: switch fluorescence ratio, 500 uM ATP over buffer (Cy3 cluster intensity, sum of 5 cycles each) (fold (ratio)); higher = stronger signal-on switching upon ATP binding; sequences stand for … in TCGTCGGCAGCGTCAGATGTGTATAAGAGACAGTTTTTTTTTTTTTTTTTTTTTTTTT…TC
Settings: aptamer strand: ATP DNA aptamer (quencher-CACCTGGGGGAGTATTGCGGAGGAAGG + anchor), 100 nM annealed; ATP concentration: 500 uM
Give your answer as a number; write no unit.

Q. Supply recorded switch fluorescence ratio for ATTGTTCCGT here.
A. 1.02

Further cases:
Q. Return reported switch fluorescence ratio. Input sequence: TGGGCAGGAC
A. 1.41

Q. Indicate the recorded switch fluorescence ratio value for this sequence: GAGTAGGGGA
A. 0.97

Q. Name the recorded switch fluorescence ratio of the item GAGTTGTGCG in your answer.
A. 0.997

Q. Answer with the recorded switch fluorescence ratio for the sequence listed here: TCTGGGGGGG
A. 0.99

Q. Output measured switch fluorescence ratio for this item: AGACGATTGT
A. 0.985

Q. Name the recorded switch fluorescence ratio of the item CGTCATTAAG in your answer.
A. 0.999

Q. Given the sequence TATTTGGTGA , write its reported switch fluorescence ratio.
A. 0.993

Q. Look up switch fluorescence ratio of CATGTAGTCT and report it.
A. 1.04

Q. Give the reported switch fluorescence ratio for this sequence. TGTTTTTAAT
A. 0.99

Q. Name the recorded switch fluorescence ratio of the sequence listed here: ACATAGCTTT
A. 1.03

----------
We begin with a simple list: items and their reported switch fluorescence ratio.
Test system: ATP;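 further: ATP exposure 15 min at 22 °C before imaging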
Assay: switch fluorescence ratio, 500 uM ATP over buffer (Cy3 cluster intensity, sum of 5 cycles each) (fold (ratio)); higher = stronger signal-on switching upon ATP binding; sequences stand for … in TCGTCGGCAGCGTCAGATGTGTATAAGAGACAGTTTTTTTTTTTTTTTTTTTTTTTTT…TC
Conditions: aptamer strand: ATP DNA aptamer (quencher-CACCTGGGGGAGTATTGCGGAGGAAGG + anchor), 100 nM annealed; ATP concentration: 500 uM
The answer should be a number; do not append a unit.

Q. Report value only: switch fluorescence ratio, ATP, GGGTAGTTCA
A. 1.01

Q. Consider the sequence TGAAGTCGCT tested on ATP; state its switch fluorescence ratio.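 Further: ATP exposure 15 min at 22 °C before imaging.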
A. 1.02

Q. // fetch switch fluorescence ratio; item: CCAATTGCGC ; system: ATP;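 further: ATP exposure 15 min at 22 °C before imaging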
A. 1.03

Q. Enter recorded switch fluorescence ratio with ATP for GTGGTCTGTG here.
A. 0.972

Q. Find switch fluorescence ratio for TCGGGGCCAA on ATP and write it down.
A. 0.991

Q. Look up and report measured switch fluorescence ratio (ATP) for the following sequence: TATAGTGGTC
A. 0.971

Q. Recall the reported switch fluorescence ratio of CAAGAATGCG on ATP and write it down.
A. 1

Q. Report value: switch fluorescence ratio, system: ATP, sequence: TGCTATACTT;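 further: ATP exposure 15 min at 22 °C before imaging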
A. 1.46

Next:
Q. Give reported switch fluorescence ratio for GGGGCGTTAT (ATP)
A. 0.969

Q. Enter switch fluorescence ratio (test system ATP) for TTTAATATGT;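 further: ATP exposure 15 min at 22 °C before imaging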
A. 0.968

Q. Answer briefly: switch fluorescence ratio recorded on ATP for TTTAATCAAG
A. 0.951

----------
Measured switch fluorescence ratio, listed per entry.
Test system: ATP;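 further: ATP exposure 15 min at 22 °C before imaging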
Test: switch fluorescence ratio, 500 uM ATP over buffer (Cy3 cluster intensity, sum of 5 cycles each) (fold (ratio)); higher = stronger signal-on switching upon ATP binding; sequences stand for … in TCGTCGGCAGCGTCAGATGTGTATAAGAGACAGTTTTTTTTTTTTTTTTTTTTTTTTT…TC
Details: aptamer strand: ATP DNA aptamer (quencher-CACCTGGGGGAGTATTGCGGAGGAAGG + anchor), 100 nM annealed; ATP concentration: 500 uM
Respond with the number and no other words.

Q. For the sequence GGGGGCGGGC , give its measured switch fluorescence ratio value.
A. 1.01

Further cases:
Q. Tell me its switch fluorescence ratio given CCGGCGGGCT as the entry.
A. 1.05

Q. Supply recorded switch fluorescence ratio for ATACCTGGTC here.
A. 1.05

Q. Retrieve switch fluorescence ratio measured for TCGGAGTAAC and print it.
A. 1.67

Q. Provide only the value of recorded switch fluorescence ratio for GTGGGTTATC
A. 1

Q. # return recorded switch fluorescence ratio for input ATCTTAAGAT
A. 0.984

Q. Output measured switch fluorescence ratio for this item: AGTGGTGGGA
A. 1.01

Q. Give a short answer stating reported switch fluorescence ratio for TTAGATACCA .
A. 1.03

Q. // Input: TAACATCTTT . Output its switch fluorescence ratio only.
A. 1.03

Q. Please look at this sequence and report its switch fluorescence ratio: TGGAGCGCCG
A. 1.01

Q. Give me measured switch fluorescence ratio, please, for this sequence: TCTGAGCCGA
A. 1.39

Q. Please give measured switch fluorescence ratio of the following entry: ATTAAAGTTT
A. 1.04

Q. Specify switch fluorescence ratio for GGTTTTATTT and stop.
A. 0.984
